// data source = patent US8003785B2

Tested on: PLK1 (Homo sapiens, UniProt P53350)
Construct: Full-length, active GST-PLK1 is purified from Sf9 insect cells; made in house; host or cells: Sf9 insect cells
Sequence (P53350 whole entry): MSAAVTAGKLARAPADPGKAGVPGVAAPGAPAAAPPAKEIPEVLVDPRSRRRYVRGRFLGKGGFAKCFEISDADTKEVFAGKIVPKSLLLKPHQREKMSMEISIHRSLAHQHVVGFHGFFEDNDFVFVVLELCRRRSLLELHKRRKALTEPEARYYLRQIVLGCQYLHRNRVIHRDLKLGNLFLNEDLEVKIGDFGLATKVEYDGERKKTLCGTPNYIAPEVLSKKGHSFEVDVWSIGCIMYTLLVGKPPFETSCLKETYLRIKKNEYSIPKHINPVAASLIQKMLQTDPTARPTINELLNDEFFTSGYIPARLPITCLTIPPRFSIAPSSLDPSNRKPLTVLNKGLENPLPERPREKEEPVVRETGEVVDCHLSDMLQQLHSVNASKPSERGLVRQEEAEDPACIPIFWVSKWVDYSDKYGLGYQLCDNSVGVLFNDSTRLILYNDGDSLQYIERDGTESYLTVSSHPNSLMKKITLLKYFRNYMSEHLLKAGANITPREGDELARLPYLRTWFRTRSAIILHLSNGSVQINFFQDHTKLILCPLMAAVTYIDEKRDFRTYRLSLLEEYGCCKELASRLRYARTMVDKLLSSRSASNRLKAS
Test: Biochemical Characterization Assay: HTRF kinase assay, GST-PLK1 phosphorylation of GST-p53
Protocol conditions: GST-PLK1, GST-p53 substrate, ATP
Documented IC50 across a set of compounds

INSERT INTO measurements (compound, recorded_value) VALUES
  ('COc1cc(C(=O)NC2CCOCC2)ccc1Nc1ncc2c(n1)N(C1CCC1)CC(F)(F)C(=O)N2C [Example I-7]', '1 to 50 nM'),
  ('COc1cc(C(=O)N[C@H]2CCC[C@H]2C(N)=O)ccc1Nc1ncc2c(n1)N(C1CCCC1)CC(F)(F)C(=O)N2C [Example I-44]', '1 to 50 nM');

Would you mind telling me what IC50 value was observed for COc1cc(C(=O)N[C@@H]2CCN(C(=O)OCc3ccccc3)C[C@H]2OC)ccc1Nc1ncc2c(n1)N(C1CCCC1)CC(F)(F)C(=O)N2C (racemic) [Example I-55] ? 51 to 500 nM
